# experiment_notes: Inhibition of yeast alpha glucosidase in phosphate buffer after 0.5 hrs by spectrophotometry
# Set-up: species or system Saccharomyces
Attribute: pIC50
Note on pIC50: it is the negative log10 of concentration, concentration in mol/L.

Please review the following examples before continuing.
>  <compound>
O=c1c2ccc(OCC3CO3)cc2oc2cccc(O)c12 (stereo unspecified)

>  <assay_result>
4.20

$$$$
>  <compound>
COc1cc(O)c2c(=O)c3cc4ccccc4cc3oc2c1

>  <assay_result>
4.50

$$$$
>  <compound>
O=c1c2cc3ccccc3cc2oc2c([N+](=O)[O-])c(O)cc(O)c12

>  <assay_result>
4.70

$$$$
>  <compound>
Nc1c(O)cc(O)c2c(=O)c3cc4ccccc4cc3oc12

>  <assay_result>
5.08

$$$$
>  <compound>
O=c1c2ccccc2oc2cc(OCCCN3CCN(c4cccc(Cl)c4)CC3)cc(O)c12

>  <assay_result>
4.21

$$$$
>  <compound>
O=c1c2ccccc2oc2c([N+](=O)[O-])c(O)cc(O)c12

>  <assay_result>
3.63

$$$$
>  <compound>
CCCCCCCCCCOc1cc(O)c2c(=O)c3ccccc3oc2c1

>  <assay_result>
3.94

$$$$
>  <compound>
O=c1c2cc3cccc(O)c3cc2oc2cc(O)cc(O)c12

>  <assay_result>
5.10

$$$$
>  <compound>
O=c1c2ccc(O)cc2oc2cccc(O)c12

>  <assay_result>
3.88

$$$$
>  <compound>
O=c1c2cc3cc(O)ccc3cc2oc2cc(O)cc(O)c12

>  <assay_result>
5.24

$$$$

As a next step, examine the compound that follows.
IN: Entry under review: "CC(=O)Oc1cc(OC(C)=O)c2c(=O)c3ccccc3oc2c1" . Reported pIC50?
OUT: 4.50

---

Reported pIC50 values for a set of compounds
# experiment_notes: Inhibition of yeast alpha glucosidase in phosphate buffer after 0.5 hrs by spectrophotometry
# Set-up: species or system Saccharomyces
The meaning of pIC50 here: minus log10 of the concentration in molar units.

Example results:
>  <smiles_str>
CC(=O)Oc1ccc2c(=O)c3c(OC(C)=O)cccc3oc2c1

>  <measurement_kind>
pIC50

>  <assay_result>
3.86

$$$$
>  <smiles_str>
O=c1c2cc(O)ccc2oc2cc(O)cc(O)c12

>  <measurement_kind>
pIC50

>  <assay_result>
4.83

$$$$
>  <smiles_str>
O=c1c2ccc(OCCCN3CCCCC3)cc2oc2cccc(O)c12

>  <measurement_kind>
pIC50

>  <assay_result>
3.88

$$$$

IN: Recorded pIC50 for "O=c1c2cc3ccccc3cc2oc2cc(OCCCBr)cc(O)c12" , please?
OUT: 4.53

IN: Quick one: pIC50 of "O=c1c2cc3ccccc3cc2oc2cc(O)cc(O)c12" ?
OUT: 5.03

IN: # query: pIC50 of entry "O=c1c2c(O)cccc2oc2cccc(O)c12"
OUT: 4.04

---

# experiment_notes: Inhibition of yeast alpha glucosidase in phosphate buffer after 0.5 hrs by spectrophotometry
# Design: species or system Saccharomyces
Would you mind classing the entries by IC50? Ranges: bucket 1: < 30 µM; bucket 2: ≥ 30 µM and < 80 µM; bucket 3: ≥ 80 µM

Sample answers from the record:
>  <compound>
CCCCCCCCOc1cc(O)c2c(=O)c3ccccc3oc2c1

>  <cat>
bucket 3

$$$$
>  <compound>
Nc1c(O)cc2oc3cc4ccccc4cc3c(=O)c2c1O

>  <cat>
bucket 1

$$$$
>  <compound>
Oc1cc(O)c2c(c1)Oc1cc3ccccc3cc1C2

>  <cat>
bucket 1

$$$$
>  <compound>
Oc1cc(O)c2c(c1)Oc1ccc3ccccc3c1C2

>  <cat>
bucket 2

$$$$

IN: Could you place "O=c1c2cc3ccccc3cc2oc2cc(O)c([N+](=O)[O-])c(O)c12" in its proper category? Many thanks.
OUT: bucket 1

IN: Hi there! Could you help me figure out the category for "O=c1c2ccccc2oc2cc(OCCCBr)cc(O)c12" please?
OUT: bucket 3

IN: Which class is correct for the following compound? "O=c1c2ccccc2oc2cc(OCCCN3CCCCC3)cc(O)c12"
OUT: bucket 3

IN: Record "O=c1c2ccc(O)cc2oc2cc(O)cc(O)c12" — which class?
OUT: bucket 2

IN: Determine which band this compound sits in: O=c1c2ccccc2oc2cc(OCC3CCCO3)cc(O)c12 (configuration not stated)
OUT: bucket 2

IN: Which category fits this record: "O=c1c2c(O)cc(O)cc2oc2cc(O)cc(O)c12"
OUT: bucket 1

IN: The entry to classify is "O=c1c2cc3ccccc3cc2oc2c3c(cc(O)c12)OCCC3" ; which class holds it?
OUT: bucket 2

---

# experiment_notes: Inhibition of yeast alpha glucosidase in phosphate buffer after 0.5 hrs by spectrophotometry
# Parameters: species or system Saccharomyces
Please use 1 for IC50 under 100 µM and 0 for everything else, ties included.

>  <compound>
CCOc1cc(O)c2c(=O)c3ccccc3oc2c1

>  <cat>
0

$$$$
>  <compound>
O=c1c2ccccc2oc2cc(OCC3CO3)cc(O)c12 (configuration not stated)

>  <cat>
1

$$$$
>  <compound>
CCCCCOc1cc(O)c2c(=O)c3ccccc3oc2c1

>  <cat>
0

$$$$
>  <compound>
CCCCOc1cc(O)c2c(=O)c3ccccc3oc2c1

>  <cat>
0

$$$$

Let us examine a further case.
IN: Take the compound "CC(=O)Oc1cc(OC(C)=O)c2c(=O)c3c(OC(C)=O)cc(OC(C)=O)cc3oc2c1" and say whether its IC50 is less than 100 µM.
OUT: 1
